The entries below come with measured Ratio values attached.
species on record: Bos taurus; test: Selectivity ratio of Bovine chymotrypsin (BCT - Ki) to human heart chymase (HHC - Ki)
Number, no unit, nothing else.

Example compounds with recorded Ratio:
>>> reported_value("CC(C)[C@H](NC(=O)OC(C)(C)C)C(=O)N1CCC[C@H]1C(=O)NC(Cc1ccccc1)C(=O)C(F)(F)C(=O)NCCC(=O)O (stereo partly drawn)")
63
>>> reported_value("CC(C)[C@H](NC(=O)OC(C)(C)C)C(=O)N1CCC[C@H]1C(=O)NC(Cc1ccccc1)C(=O)C(F)(F)C(=O)N(C)Cc1ccccc1 (stereo partly drawn)")
108
>>> reported_value("CC(C)[C@H](NC(=O)c1ccccc1)C(=O)N1CCC[C@H]1C(=O)NC(Cc1ccccc1)C(=O)C(F)(F)C(=O)Nc1cccc(C(=O)O)c1 (stereo partly drawn)")
88

Memo: CC(C)[C@H](NC(=O)OC(C)(C)C)C(=O)N1CCC[C@H]1C(=O)NC(Cc1ccccc1)C(=O)C(F)(F)C(=O)NCC(=O)O (stereo partly drawn) , reported Ratio: 200

Memo: CC(C)[C@H](NC(=O)OC(C)(C)C)C(=O)N1CCC[C@H]1C(=O)NC(Cc1ccccc1)C(=O)C(F)(F)C(=O)Nc1ccc(C(=O)O)cc1 (stereo partly drawn) , reported Ratio: 29

* * *

Recorded log10 Ki values (Chymotrypsinogen A (Bos taurus)) are given below.
Non-standard residues stand in square brackets, D forms with d. Residues, ends and D or L forms follow the SMILES beside them. ξ: configuration not given here. *: point of attachment. ξF = NC(Cc1ccccc1)C(=O)O; Boc = CC(C)(C)OC(=O)*; CF3 = FC(F)(F)*
Note the log scale: values are log10 of Ki expressed in nM.

Example compounds with recorded log10 Ki:
>>> reported_value("CC(C)[C@H](NC(=O)c1ccccc1)C(=O)N1CCC[C@H]1C(=O)NC(Cc1ccccc1)C(=O)C(F)(F)C(=O)Nc1cccc(C(=O)O)c1 (some centres undefined)")
2.44
>>> reported_value("CC(C)[C@H](NC(=O)OC(C)(C)C)C(=O)N1CCC[C@H]1C(=O)NC(Cc1ccccc1)C(=O)C(F)(F)C(=O)Nc1ccccc1 (some centres undefined)")
1.85
>>> reported_value("CC(C)[C@H](NC(=O)OC(C)(C)C)C(=O)N1CCC[C@H]1C(=O)NC(Cc1ccccc1)C(=O)C(F)(F)C(=O)NCCCC(=O)O (some centres undefined)")
3.65
>>> reported_value("CC(C)[C@H](NC(=O)OC(C)(C)C)C(=O)N1CCC[C@H]1C(=O)NC(Cc1ccccc1)C(=O)C(F)(F)C(=O)N[C@@H](Cc1ccccc1)C(=O)O (some centres undefined)")
4.89
>>> reported_value("CC(=O)N[C@H](C(=O)N1CCC[C@H]1C(=O)NC(Cc1ccccc1)C(=O)C(F)(F)C(=O)Nc1cccc(C(=O)O)c1)C(C)C (some centres undefined)")
1.04
>>> reported_value("CC(C)[C@H](NC(=O)CCc1ccccc1)C(=O)N1CCC[C@H]1C(=O)NC(Cc1ccccc1)C(=O)C(F)(F)C(=O)Nc1cccc(C(=O)O)c1 (some centres undefined)")
1.28
>>> reported_value("CC(C)[C@H](NC(=O)OC(C)(C)C)C(=O)N1CCC[C@H]1C(=O)NC(Cc1ccccc1)C(=O)C(F)(F)C(=O)Nc1cccc(C(=O)O)c1 (some centres undefined)")
2.56
>>> reported_value("CC(C)[C@H](NC(=O)OC(C)(C)C)C(=O)N1CCC[C@H]1C(=O)NC(Cc1ccccc1)C(=O)C(F)(F)F (stereo partly drawn) (Boc-Val-Pro-[ξF]-CF3)")
2.05
>>> reported_value("CC(C)[C@H](NC(=O)OC(C)(C)C)C(=O)N1CCC[C@H]1C(=O)NC(Cc1ccccc1)C(=O)C(F)(F)C(=O)NCCc1ccccc1 (some centres undefined)")
3.31
>>> reported_value("COC(=O)CNC(=O)C(F)(F)C(=O)C(Cc1ccccc1)NC(=O)[C@@H]1CCCN1C(=O)[C@@H](NC(=O)OC(C)(C)C)C(C)C (some centres undefined)")
3.40

The compound CNC(=O)C(F)(F)C(=O)C(Cc1ccccc1)NC(=O)[C@@H]1CCCN1C(=O)[C@@H](NC(=O)OC(C)(C)C)C(C)C (some centres undefined) on Chymotrypsinogen A (Bos taurus): log10 Ki was 3.03

The compound CC(C)[C@H](NC(=O)OC(C)(C)C)C(=O)N1CCC[C@H]1C(=O)NC(Cc1ccccc1)C(=O)C(F)(F)C(=O)NCC(=O)OCc1ccccc1 (some centres undefined) on Chymotrypsinogen A (Bos taurus): log10 Ki was 2.50

The compound CC(NC(=O)C(F)(F)C(=O)C(Cc1ccccc1)NC(=O)[C@@H]1CCCN1C(=O)[C@@H](NC(=O)OC(C)(C)C)C(C)C)C(=O)O (some centres undefined) on Chymotrypsinogen A (Bos taurus): log10 Ki was 4.74
